Target: T1, Recombinant human CD40L (human, UniProt P29965 108-261, limits assumed)
T1 construct: also called CD40 ligand
T1 sequence (looked up): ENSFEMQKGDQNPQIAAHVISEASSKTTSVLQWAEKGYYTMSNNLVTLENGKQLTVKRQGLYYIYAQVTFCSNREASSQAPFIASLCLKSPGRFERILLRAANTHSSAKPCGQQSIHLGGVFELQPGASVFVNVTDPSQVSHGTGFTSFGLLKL
Assay: CD40L/CD40-Fc receptor binding assay;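 also: plate assay with coated human CD40-Fc, bound ligand detected via HRP anti-biotin antibody and TMB, OD at 450 nm, lower signal indicates stronger inhibition by dAb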
Metric name: binding result

1) DOM-66 (other, VH dAb) VH: EVQLLESGGGLVQPGGSLRLSCAASGFTFSDYEMLWVRQAPGKGLEWVSTITSEGHSTYYADSVKGRFTISRDNSKNTLYLQMNSLRAEDTAVYYCAKPGTSFDYWGQGTLVTVSS    binds
2) DOM.88 (other, Vk dAb) VL: DIQMTQSPSSLSASVGDRVTITCRASQEIVEDLYWYQQKPGKAAKLLIYGASWLQSGVPSRFSGSGSGTDFTLTISSLQPEDFATYYCQQTRRRPYTFGQGTKVEIKR    binds
